# System: HCT116, a colorectal carcinoma cell line
# measurementDescription: Tetrazolium dye (MTT) proliferation assay
# Assay type: cell-based
# measurementConditions: Homo sapiens, HCT-116; HCT116 cells
attributeMeasured: IC50 (µM)

[[record]]
substancesmiles = "CS(=O)(=O)N1CCC(Nc2ncc3c(-c4cccc(F)c4)n[nH]c3n2)CC1"
unitssymbol = "µM"
reportedvalue = 30

[[record]]
substancesmiles = "COc1ccccc1-c1n[nH]c2nc(NC3CCN(S(C)(=O)=O)CC3)ncc12"
unitssymbol = "µM"
reportedvalue = 1.2

[[record]]
substancesmiles = "COc1ccc(F)cc1-c1n[nH]c2nc(N[C@H]3CCN(S(C)(=O)=O)C[C@@H]3O)ncc12"
unitssymbol = "µM"
reportedvalue = 1.7

[[record]]
substancesmiles = "CS(=O)(=O)N1CCC(Nc2ncc3cn[nH]c3n2)CC1"
unitssymbol = "µM"
reportedvalue = 9.16

[[record]]
substancesmiles = "CS(=O)(=O)N1CCC(Nc2ncc3c(-c4ccccc4)n[nH]c3n2)CC1"
unitssymbol = "µM"
reportedvalue = 3.93


P. CS(=O)(=O)N1CCC(Nc2ncc3c(-c4c(F)cccc4F)n[nH]c3n2)CC1
Q. COc1ccc(F)c(F)c1-c1n[nH]c2nc(NC3CCN(S(C)(=O)=O)CC3)ncc12
Lookup: Param pair: P , Q . Output: the one whose IC50 is numerically greater. API: response body contains the label of the selected item.
Found: P

====

# systemTested: human cyclin E-Cdk2 (Homo sapiens, UniProt P24941)
# measurementDescription: Cdk2 FlashPlate kinase assay (Rb phosphorylation)
# Type: biochemical
# measurementConditions: recombinant cyclin E-Cdk2, Rb substrate, 1 μM ATP
attributeMeasured: IC50 (nM)

[[record]]
substancesmiles = "COc1ccccc1-c1n[nH]c2nc(NC3CCN(S(C)(=O)=O)CC3)ncc12"
unitssymbol = "nM"
reportedvalue = 18


A. CS(=O)(=O)N1CCC(Nc2ncc3c(-c4cccc(F)c4)n[nH]c3n2)CC1
B. COc1ccccc1-c1n[nH]c2nc(Nc3ccc(S(N)(=O)=O)cc3)ncc12
Lookup: Looking at A and B , which one comes out lower in IC50 terms? API: response body contains the label of the selected item.
Found: B

====

# systemTested: human cyclin E-Cdk2 (Homo sapiens, UniProt P24941)
# measurementDescription: Cdk2 FlashPlate kinase assay (Rb phosphorylation)
# measurementConditions: recombinant cyclin E-Cdk2, Rb substrate, 1 μM ATP
attributeMeasured: IC50 (nM)

These solved cases illustrate the format of a correct answer.
[[record]]
molecule = "COc1ccccc1-c1n[nH]c2nc(NCCCN(C)C)ncc12 [Example 36]"
unitssymbol = "nM"
reportedvalue = 278

[[record]]
molecule = "Cc1n[nH]c2nc(NCCO)ncc12 [Example 42]"
unitssymbol = "nM"
reportedvalue = 278

[[record]]
molecule = "COc1ccccc1Nc1ncc2c(-c3c(F)cccc3F)n[nH]c2n1 [Example 40]"
unitssymbol = "nM"
reportedvalue = 278


A. COc1ccc(Nc2ncc3c(-c4ccccc4OC)n[nH]c3n2)cc1 [Example 39]
B. Fc1ccc(Nc2ncc3c(-c4c(F)cccc4F)n[nH]c3n2)cc1 [Example 33]
Lookup: Param pair: A , B . Output: the one whose IC50 is numerically greater. API: response body contains the label of the selected item.
Found: B

A. CS(=O)(=O)N1CCC(Nc2ncc3c(-c4ccccc4)n[nH]c3n2)CC1 [Example 30]
B. Cc1n[nH]c2nc(Nc3ccc(S(N)(=O)=O)cc3)ncc12 [Example 41]
Lookup: Param pair: A , B . Output: the one whose IC50 is numerically greater. API: response body contains the label of the selected item.
Found: A
(A: 179 nM, B: 24 nM)

====

# systemTested: human cyclin E-Cdk2 (Homo sapiens, UniProt P24941)
# measurementDescription: Cdk2 FlashPlate kinase assay (Rb phosphorylation)
# measurementConditions: recombinant cyclin E-Cdk2, Rb substrate, 1 μM ATP
attributeMeasured: IC50 (µM)

[[record]]
compound = "COc1ccccc1-c1n[nH]c2nc(NCCCCCN(C)C)ncc12 [Example 37]"
attributemeasured = "IC50"
unitssymbol = "µM"
reportedvalue = 0.278


I. CCOC(=O)N1CCC(Nc2ncc3c(-c4cccc(F)c4)n[nH]c3n2)CC1 [Example 43]
II. COc1ccccc1-c1n[nH]c2nc(NCCCCCN)ncc12 [Example 35]
Lookup: Looking at I and II , which one comes out lower in IC50 terms? API: response body contains the label of the selected item.
Found: I
